Catalogue of IC50 readings, one per entry.
# system_under_test: CDK5/p25 (Homo sapiens)
# protocol: CDK5 mobility shift assay (enzymatic activity of CDK5/p25)
# Assay type: biochemical
# condition: 0.154 nM CDK5/p25, FL peptide 29, 60 min at room temperature; read-out: CDK5 IC50
# Experimental: Compound potency was measured via a change in the enzymatic activity of CDK5/p25, and optionally of CDK2/CycA2. Enzymes, CDK5/p25 and CDK2/CycA2, were sourced from Carna Biosciences (Cat #04-106 and 04-103, respectively). Test compound stocks were diluted in 100% DMSO and serially diluted 3-fold in a 384-well plate using a TECAN EVO200 (TECAN). […] The CDK5/p25 reaction was incubated at room temperature for 60 min. […] Samples were analyzed using the EZ Reader (Perkin Elmer). […]

>>> df
                                   molecule  measure  readout_value
0  C=C(c1ccc2cnc(Nc3ccc(-n4ccc(CO)n4)cc3F)cc2n1)C1CCN(C)CC1     IC50        < 10 nM

Which IC50 is listed for OC(c1ccc2cnc(Nc3ccc(-n4cccn4)cc3F)cc2n1)C1(O)CCNCC1 (stereo not shown) ?
100 to 1000 nM

Moving on to `O=S(=O)(c1ccc2cnc(Nc3ccc(-n4ccc(CO)n4)cc3F)cc2n1)N1CCNCC1`
10 to 100 nM

* * *

# system_under_test: CDK5/p25 (Homo sapiens)
# protocol: CDK5 mobility shift assay (enzymatic activity of CDK5/p25)
# Format: biochemical
# condition: 0.154 nM CDK5/p25, FL peptide 29, 60 min at room temperature; read-out: CDK5 IC50
Catalogue of molecules with associated IC50

# count of solved cases: 5
>>> df
                                   molecule  readout_value
0  O=S(=O)(c1ccc2cnc(Nc3ccc(-n4ccc(CO)n4)cc3F)cc2n1)C1CCNCC1   10 to 100 nM
1  CC(c1ccc2cnc(Nc3ccc(-c4cccc(C(N)=O)c4)cc3F)cc2n1)C1CCN(C)CC1 (centres unmarked)        < 10 nM
2  CN1CCC(C(C)(O)c2ccc3cnc(Nc4ccc(CN5CCOCC5)cc4F)cc3n2)CC1 (centres unmarked)        < 10 nM
3  CN1CCC(S(=O)(=O)c2ccc3cnc(Nc4ccccc4N4CCOCC4)cc3n2)CC1      > 1000 nM
4  CN1CCC(=Cc2ccc3cnc(Nc4ccc(-n5ccc(CO)n5)cc4F)cc3n2)CC1   10 to 100 nM

Using the record for `COc1ccc(-c2ccc(Nc3cc4nc(S(=O)(=O)C5CCN(CC6COC6)CC5)ccc4cn3)c(F)c2)cc1` , report its IC50.
< 10 nM

// repeat for `CN1CCC(S(=O)(=O)c2ccc3cnc(Nc4ccc(-n5cncn5)cc4)cc3n2)CC1` and report
< 10 nM

Thanks! And COc1cc(-c2ccc(Nc3cc4nc(C(C)C5CCN(C)CC5)ccc4cn3)c(F)c2)ccn1 (centres unmarked) [Compound 333] ?
< 10 nM

* * *

# system_under_test: CDK5/p25 (Homo sapiens, UniProt Q00535)
# Sequence (Q00535 whole entry): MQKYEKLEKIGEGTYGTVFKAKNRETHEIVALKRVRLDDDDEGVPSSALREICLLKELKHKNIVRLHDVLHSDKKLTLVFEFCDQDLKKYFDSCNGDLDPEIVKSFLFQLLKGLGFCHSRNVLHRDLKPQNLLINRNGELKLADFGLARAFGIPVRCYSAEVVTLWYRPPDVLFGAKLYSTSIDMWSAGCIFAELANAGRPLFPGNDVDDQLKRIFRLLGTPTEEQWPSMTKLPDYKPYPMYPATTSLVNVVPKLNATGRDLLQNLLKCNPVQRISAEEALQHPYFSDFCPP
# Sequence (Q15078 99-307 partner limits assumed): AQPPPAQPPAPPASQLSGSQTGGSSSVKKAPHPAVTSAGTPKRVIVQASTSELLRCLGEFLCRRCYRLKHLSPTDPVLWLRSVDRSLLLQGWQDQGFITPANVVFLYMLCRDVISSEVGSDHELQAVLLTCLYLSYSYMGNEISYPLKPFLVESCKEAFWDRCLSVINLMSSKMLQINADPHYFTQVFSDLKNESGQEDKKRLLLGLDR
# protocol: CDK5 mobility shift assay (enzymatic activity of CDK5/p25)
# Format: biochemical
# condition: 0.154 nM CDK5/p25, FL peptide 29, 60 min at room temperature; read-out: CDK5 IC50
IC50 reference

Solved entries:
>>> df
                                   compound                        system_under_test  measure   readout_value
0  CN[C@H]1CC[C@@H](N(CC(=O)O)c2ccc3cnc(Nc4ccc(-n5cccn5)cc4F)cc3n2)CC1  CDK5/p25 (Homo sapiens, UniProt Q00535)     IC50  100 to 1000 nM
1  CN1CCC(C(C)(O)c2ccc3cnc(Nc4ccc(-c5ccc(=O)[nH]c5)cc4F)cc3n2)CC1 (centres unmarked)  CDK5/p25 (Homo sapiens, UniProt Q00535)     IC50         < 10 nM
2  CN1CCC(C2(c3ccc4cnc(Nc5ccc(-n6ccc(CO)n6)cc5F)cc4n3)CC2)CC1  CDK5/p25 (Homo sapiens, UniProt Q00535)     IC50    10 to 100 nM
3  CCc1cccc(Nc2cc3nc(C(C)(O)C4CCN(C)CC4)ccc3cn2)c1 (centres unmarked)  CDK5/p25 (Homo sapiens, UniProt Q00535)     IC50         < 10 nM
4  CN1CCC(S(=O)(=O)c2ccc3cnc(Nc4ccc(N5CCN(C)CC5)cc4)cc3n2)CC1  CDK5/p25 (Homo sapiens, UniProt Q00535)     IC50         < 10 nM

Notebook entry, CDK5/p25 (Homo sapiens, UniProt Q00535) assay: IC50 of CN1CCC(C(C)(O)c2ccc3cnc(Nc4ccc(-c5ccc(C#N)cc5)cc4F)cc3n2)CC1 (centres unmarked) = ?
< 10 nM

Now this one: `CN1CCC(S(=O)(=O)c2ccc3cnc(Nc4ccc(-n5ccc(C(N)=O)n5)cc4F)cc3n2)CC1`
< 10 nM

Next compound: COc1cc(-c2ccc(Nc3cc4nc(C(C)(O)C5CCN(C)CC5)ccc4cn3)c(F)c2)ccn1 (centres unmarked)
> 1000 nM

* * *

Parameter: IC50. Scope: all listed entries.
# system_under_test: CDK2/CycA2 (Homo sapiens)
# protocol: CDK2 mobility shift assay (enzymatic activity of CDK2/CycA2)
# Assay type: biochemical
# condition: 1.25 nM CDK2/CycA2, 37 μM ATP, FL Peptide 18, 120 min at room temperature; read-out: CDK2 IC50

Some compounds with recorded IC50:
>>> print(df.to_string())
                                   compound  measure   readout_value
0  CN1CCC(S(=O)(=O)c2ccc3cnc(Nc4ccc(-n5cccn5)cc4F)cc3n2)CC1     IC50  100 to 1000 nM
1  Cc1ccc(F)c(Nc2cc3nc(C(O)(C4CCN(C)CC4)C(F)(F)F)ccc3cn2)c1 (stereo not shown) [Compound 394]     IC50    10 to 100 nM
2  CN1CCC(S(=O)(=O)c2ccc3cnc(Nc4ccc(N(C)C)cc4)cc3n2)CC1     IC50    10 to 100 nM
3  CN1CCC(S(=O)(=O)c2ccc3cnc(Nc4cccc(C5CC5)c4)cc3n2)CC1     IC50    10 to 100 nM
4  N#Cc1cccc(-c2ccc(Nc3cc4nc(C(O)C5CCN(CCO)CC5)ccc4cn3)c(F)c2)c1 (single isomer, unassigned) [Compound 250]     IC50  100 to 1000 nM

IC50 for `CN1CCC(S(=O)(=O)c2ccc3cnc(Nc4ccc(N5CCC(O)CC5)cc4)cc3n2)CC1` ?
100 to 1000 nM

Note, next up: `CN1CCC(S(=O)(=O)c2ccc3cnc(Nc4ccc(S(C)(=O)=O)cc4)cc3n2)CC1`
10 to 100 nM

* * *

# system_under_test: CDK2/CycA2 (Homo sapiens)
# protocol: CDK2 mobility shift assay (enzymatic activity of CDK2/CycA2)
# Format: biochemical
# condition: 1.25 nM CDK2/CycA2, 37 μM ATP, FL Peptide 18, 120 min at room temperature; read-out: CDK2 IC50
Property: IC50; scope: individual compounds

>>> df
                                   compound  readout_value
0  CN1CCC(C2(c3ccc4cnc(Nc5ccc(-n6cccn6)cc5F)cc4n3)CCO2)CC1 (centres unmarked) [Compound 365]    0.1 to 1 µM
1  OCCN(c1ccc2cnc(Nc3ccc(-n4nccc4CO)cc3F)cc2n1)C1CCNCC1 [Compound 103]    0.1 to 1 µM
2  COC(c1ccc2cnc(Nc3ccc(-n4cccn4)cc3F)cc2n1)C1CCN(C)CC1 (single isomer, unassigned) [Compound 391]         > 1 µM
3  CN1CCC(=Cc2ccc3cnc(Nc4ccc(-n5ccc(CO)n5)cc4F)cc3n2)CC1 [Compound 150]         > 1 µM
4  CN1CCC(C(O)c2ccc3cnc(Nc4ccc(-n5ccc(C(=O)O)n5)cc4F)cc3n2)CC1 (centres unmarked) [Compound 292]    0.1 to 1 µM

Recorded IC50 of CC(c1ccc2cnc(Nc3ccc(-n4ccc(CO)n4)cc3F)cc2n1)C1CCN(C)CC1 (single isomer, unassigned) [Compound 186] , please.
> 1 µM

Item: CN1CCC(S(=O)(=O)c2ccc3cnc(Nc4ccc(N5CCCC5)cc4)cc3n2)CC1 [Compound 301]
0.1 to 1 µM

Also need CN1CCC(C(C)(O)c2ccc3cnc(Nc4ccc(-c5noc(=O)[nH]5)cc4F)cc3n2)CC1 (centres unmarked) [Compound 355] , thanks.
0.01 to 0.1 µM

* * *

# system_under_test: CDK2/CycA2 (Homo sapiens)
# protocol: CDK2 mobility shift assay (enzymatic activity of CDK2/CycA2)
# Assay type: biochemical
# condition: 1.25 nM CDK2/CycA2, 37 μM ATP, FL Peptide 18, 120 min at room temperature; read-out: CDK2 IC50
Below, each of the compounds is paired with its reported IC50 value.

Guide cases for IC50, answers given:
In [3]: df
Out[3]:
                                   compound  measure   readout_value
0  CN1CCC(C(C)(O)c2ccc3cnc(Nc4ccc(-c5cccnc5)cc4F)cc3n2)CC1 (stereo not shown) [Compound 329]     IC50    10 to 100 nM
1  CN1CCC(S(=O)(=O)c2ccc3cnc(Nc4ccc(-n5ccc(C(=O)O)n5)cc4F)cc3n2)CC1 [Compound 198]     IC50  100 to 1000 nM
2  O=C(c1ccc2cnc(Nc3ccc(-n4cccn4)cc3F)cc2n1)C1CCNCC1 [Compound 141]     IC50    10 to 100 nM
3  CNC(=O)c1ccn(-c2ccc(Nc3cc4nc(S(=O)(=O)C5CCN(CC6COC6)CC5)ccc4cn3)c(F)c2)n1 [Compound 334]     IC50  100 to 1000 nM

Which IC50 is listed for CN1CCC(C)(Nc2ccc3cnc(Nc4ccc(-n5ccc(CO)n5)cc4F)cc3n2)CC1 [Compound 140] ?
> 1000 nM

Can you handle OCc1ccn(-c2ccc(Nc3cc4nc(C(CO)C5CCNCC5)ccc4cn3)c(F)c2)n1 (stereo not shown) [Compound 142] next?
> 1000 nM

Repeat for the following compound: CN1CCC(S(=O)(=O)c2ccc3cnc(Nc4cccc(N5CCOC5=O)c4)cc3n2)CC1 [Compound 284]
10 to 100 nM

Another: [O-][S@@+](c1ccc2cnc(Nc3ccc(-n4cccn4)cc3F)cc2n1)C1CCNCC1 [Compound 115]
10 to 100 nM

Now give it for COc1ccc(-c2ccc(Nc3cc4nc(S(=O)(=O)C5CCN(CC6COC6)CC5)ccc4cn3)c(F)c2)cc1 [Compound 331] too.
100 to 1000 nM
